system: MES SA (uterine sarcoma cells); assay: Cytotoxic assay (CellTiter-Glo, 72 h), MES SA; format: cell-based; settings: Homo sapiens, MES-SA, read-out: IC50 MES SA
OBSERVATION_TYPE: pIC50
Worth noting: pIC50 values are minus log10 of concentrations stated in mol/L.

Problem: Request the reported pIC50 associated with CC[C@H](C)[C@H](NC(=O)[C@H]1CCCCN1C)C(=O)N(C)[C@H](C[C@@H](OC(C)=O)c1nc(C(=O)N[C@@H](Cc2ccccc2)C[C@H](C)C(=O)O)cs1)C(C)C
Solution: 9.47

Problem: Further, for CC[C@H](C)[C@H](NC(=O)[C@H]1CCCCN1C)C(=O)N(C)[C@H](C[C@@H](OC(C)=O)c1cccc(C(=O)N[C@@H](Cc2ccccc2)C[C@H](C)C(=O)OC)n1)C(C)C ?
Solution: 9.45

Problem: Please give the result for COC(=O)[C@@H](C)C[C@H](Cc1ccccc1)NC(=O)c1csc([C@@H](C[C@H](C(C)C)N(C)C(=O)[C@@H](NC(=O)[C@H]2CCCCN2C)C(C)C)OC(C)=O)n1 too.
Solution: 10.92

Problem: Follow-up entry: CC[C@H](C)[C@H](NC(=O)[C@H]1CCCCN1C)C(=O)N(C)[C@H](C[C@@H](OC(C)=O)c1nc(C(=O)N[C@@H](Cc2ccccc2)C[C@H](C)C(=O)OC)cs1)C(C)C
Solution: 9.70

Problem: Okay, and CCC(C)[C@H](NC(=O)[C@H]1CCCCN1C)C(=O)N(C)[C@H](C[C@@H](OC(C)=O)c1nc(C(=O)NC23CC(C(=O)OC)(C2)C3)cs1)C(C)C (stereo in doubt) ?
Solution: 9.46
